Hey, just so you know, these numbers are from patent US20250136687A1.

# measured_target: T1, human CD3ε/δ-His (human, UniProt P07766 23-126; P04234 22-105)
# T1 construct: Bought recombinant heterodimer with His tag; also called human CD3ε/δ protein
# T1 sequence (P07766 23-126, stated change not applied, form in doubt, chain 1 of 2): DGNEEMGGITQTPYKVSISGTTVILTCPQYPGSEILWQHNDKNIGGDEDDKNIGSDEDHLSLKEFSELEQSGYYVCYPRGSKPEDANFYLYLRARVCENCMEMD
# T1 sequence (P04234 22-105, stated change not applied, form in doubt, chain 2 of 2): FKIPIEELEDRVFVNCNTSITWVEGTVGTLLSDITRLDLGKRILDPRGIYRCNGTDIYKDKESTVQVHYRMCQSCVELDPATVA
# protocol_description: SPR, antibody captured on Protein A chip
readout_name: kon (M⁻¹ s⁻¹)
I only need the number, in M⁻¹ s⁻¹, no unit after it.

8-18.1-H1-L2 humanized antibody (antibody, human IgG1, kappa, V domains shown) VH: EVQLVQSGAEVKKPGASVKVSCKASGYTFTMNTMHWVRQAPGQRLEWMGYINPYSGYTKYNQIFKDRVTITADKSASTAYMELSSLRSEDTAVYYCLRGGEGVWGQGTTVTVSS VL: DVVMTQSPLSLPVTLGQPASISCKSSQSLLDSDGKTYLNWLQQRPGQSPRRLIYLVSELGSGVPDRFSGSGSGTDFTLKISRVEAEDVGVYYCWQGTHFPRTFGGGTKVEIKR	469000
5-7.13-H1a-L2 humanized antibody (antibody, human IgG1, kappa, V domains shown) VH: EVQLVQSGAEVKKPGASVKVSCKASGYTFTSYWVHWVRQAPGQRLEWMGNINPSDGVTNYNEKFKSRVTITVDKSASTAYMELSSLRSEDTAVYYCTRDAYGQYYFDNWGQGTTVTVSS VL: DIVMTQTPLSLPVTPGEPASISCKSSQSLLNSRTRKNYLAWYLQKPGQSPQLLIYWASVRDSGVPDRFSGSGSGTDFTLKISRVEAEDVGVYYCIQSYYLRTFGGGTKVEIKR	358000
5-40.21-H3-L1 humanized antibody (antibody, human IgG1, kappa, V domains shown) VH: EVQLVQSGAEVKKPGASVKVSCKASGYTFTSYWMHWVRQAPGQGLEWMGNTYPGSGSTNYDEKFKSRVTITVDSSASTAYMELSSLRSEDTAVYYCTRDRYGVYYFDYWGQGTTVTVSS VL: DIVMTQSPDSLAVSLGERATINCKSSQSLLNSRTRKNYLAWYQQKPGQSPKLLIYWASTRESGVPDRFSGSGSGTDFTLTISSLQAEDVAVYYCTQSYNLRTFGGGTKVEIKR	161000

Item under review: 40G5c-hIgG1 (antibody, V domains shown) VH: EVQLVQSGAEVKKPGASVKVSCKASGYTFTNYYIHWVRQAPGQGLEWIGWIYPGDGNTKYNEKFKGRATLTADTSTSTAYLELSSLRSEDTAVYYCARDSYSNYYFDYWGQGTLVTVSS VL: DIVMTQSPDSLAVSLGERATINCKSSQSLLNSRTRKNYLAWYQQKPGQPPKLLIYWASTRESGVPDRFSGSGSGTDFTLTISSLQAEDVAVYYCTQSFILRTFGQGTKVEIKR . Reported kon?
1.53e+06

Lookup 7-35.6-H2-L3 humanized antibody (antibody, human IgG1, lambda, V domains shown) VH: EVQLVESGGGLVQPGGSLKLSCAASGFTFNTYAMNWVRQASGKGLEWVGRIRSKINNYATYYGDSVKDRFTISRDDSKNTFYLQMNSLKTEDTAVYYCVIHENYGSISWFAYWGQGTLVTVSS VL: ETVVTQEPSLTVSPGGTVTLTCRSSTGAVTTSNYANWVQQKPGQAFTGLIGGTNNRAPWTPARFSGSLLGGKAALTLSGVQPEDEAEYYCALWYSNHWVFGGGTKLTVLG
231000
